Biological target: LXRβ (Homo sapiens, UniProt P55055)
Construct: Co-transfection expression plasmids, comprising full-length LXRα (pCMX-h LXRα or LXRβ (pCMX-hLXRβ))
Sequence (P55055 1-460): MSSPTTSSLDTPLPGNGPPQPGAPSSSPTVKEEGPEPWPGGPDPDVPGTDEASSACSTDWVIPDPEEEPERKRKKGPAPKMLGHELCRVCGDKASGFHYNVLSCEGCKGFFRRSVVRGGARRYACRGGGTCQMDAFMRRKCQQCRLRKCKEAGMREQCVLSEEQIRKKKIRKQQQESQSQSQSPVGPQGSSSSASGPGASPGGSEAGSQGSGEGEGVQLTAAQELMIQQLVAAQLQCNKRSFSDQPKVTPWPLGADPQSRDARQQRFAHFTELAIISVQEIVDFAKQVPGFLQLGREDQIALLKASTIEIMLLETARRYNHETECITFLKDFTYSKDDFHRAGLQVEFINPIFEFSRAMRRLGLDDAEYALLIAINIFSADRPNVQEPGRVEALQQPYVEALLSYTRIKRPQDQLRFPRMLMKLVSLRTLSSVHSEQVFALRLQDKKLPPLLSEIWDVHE
Sequence (P19793 1-462 partner): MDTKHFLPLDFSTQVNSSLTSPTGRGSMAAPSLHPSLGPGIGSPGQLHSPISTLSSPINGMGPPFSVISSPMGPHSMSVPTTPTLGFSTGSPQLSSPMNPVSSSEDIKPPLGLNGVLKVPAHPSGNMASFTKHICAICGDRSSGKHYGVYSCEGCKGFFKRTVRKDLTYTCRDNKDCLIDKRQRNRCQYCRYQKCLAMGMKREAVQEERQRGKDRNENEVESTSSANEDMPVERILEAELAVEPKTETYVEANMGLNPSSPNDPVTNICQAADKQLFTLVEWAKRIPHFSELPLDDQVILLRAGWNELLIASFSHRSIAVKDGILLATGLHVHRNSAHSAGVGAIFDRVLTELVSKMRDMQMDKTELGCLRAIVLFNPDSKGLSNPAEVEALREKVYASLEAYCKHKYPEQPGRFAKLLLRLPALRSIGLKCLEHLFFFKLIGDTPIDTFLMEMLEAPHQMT
Assay: LXR/LXRE co-transfection assay (luciferase reporter) in CV-1 cells, LXRβ
Details: CV-1 cells transfected with pCMX-hLXRβ and LXREx1-Tk-Luciferase, 20 hours incubation, read-out: LXRbeta agonism EC50
value_kind: EC50 (µM)

> print(dat)
                                   molecule  value.kind  obs.value
1  Cc1nc(-c2ccc3c(c2)OC(F)(F)O3)c(-c2cc(-c3cccc(S(C)(=O)=O)c3)ccc2-c2cc(C(F)(F)CO)nn2C)o1 [Example 49]        EC50      0.086
2  Cc1nc(-c2ccc3c(c2)OC(F)(F)O3)c(-c2cc(-c3cccc(S(C)(=O)=O)c3)ccc2-c2cc(C#N)nn2C)o1        EC50      0.094

I. Cn1nc(C(F)F)cc1-c1ccc(-c2cccc(S(C)(=O)=O)c2)cc1-n1nncc1-c1ccc(OC(F)(F)F)cc1
II. Cc1nc(-c2ccc3c(c2)OC(F)(F)O3)c(-c2cc(-c3cc(F)c(CO)c(S(C)(=O)=O)c3)ccc2-c2cc(C(C)(C)C(N)=O)nn2C)o1
QUERY: Pick the one with the larger EC50: I vs II # reply format: chosen label
RESULT: I
(I: 0.126 µM, II: 0.067 µM)
